Each recorded value in this set is attributed to ChEMBL document CHEMBL6078723.

test system: Staphylococcus aureus; experiment: Antibacterial activity against Staphylococcus aureus CGMCC1.8721; assay type: functional
recorded endpoint: MIC (µg/mL)
Numbers only, in µg/mL.

test smiles	system	unit name	MIC
COc1ccc2[nH]c3c(CC[C@H](C)[C@H]4CC[C@H]5[C@@H]6[C@H](O)C[C@@H]7C[C@H](O)CC[C@]7(C)[C@H]6CC[C@]45C)[n+](Cc4cccc(Cl)c4)ccc3c2c1.[Br-]	Staphylococcus aureus	µg/mL	16

Hi there! I need MIC for each item below, if you can.
1. COc1ccc2[nH]c3c(CC[C@H](C)[C@H]4CC[C@H]5[C@@H]6[C@H](O)C[C@@H]7C[C@H](O)CC[C@]7(C)[C@H]6C[C@H](O)[C@]45C)[n+](Cc4ccc(Br)cc4)ccc3c2c1.[Br-]
2. COc1ccc2[nH]c3c(CC[C@H](C)[C@H]4CC[C@H]5[C@@H]6[C@H](O)C[C@@H]7C[C@H](O)CC[C@]7(C)[C@H]6CC[C@]45C)[n+](Cc4ccc(F)cc4)ccc3c2c1.[Br-]
3. COc1ccc2[nH]c3c(CC[C@H](C)[C@H]4CC[C@H]5[C@@H]6[C@H](O)C[C@@H]7C[C@H](O)CC[C@]7(C)[C@H]6C[C@H](O)[C@]45C)[n+](Cc4ccc(OC(F)(F)F)cc4)ccc3c2c1.[Br-]
4. COc1ccc2[nH]c3c(CC[C@H](C)[C@H]4CC[C@H]5[C@@H]6[C@H](O)C[C@@H]7C[C@H](O)CC[C@]7(C)[C@H]6CC[C@]45C)[n+](Cc4ccccc4C)ccc3c2c1.[Br-]
5. COc1ccc2[nH]c3c(CC[C@H](C)[C@H]4CC[C@H]5[C@@H]6[C@H](O)C[C@@H]7C[C@H](O)CC[C@]7(C)[C@H]6CC[C@]45C)[n+](Cc4ccc(Br)cc4)ccc3c2c1.[Br-]
6. COc1ccc2[nH]c3c(CC[C@H](C)[C@H]4CC[C@H]5[C@@H]6[C@H](O)C[C@@H]7C[C@H](O)CC[C@]7(C)[C@H]6C[C@H](O)[C@]45C)[n+](Cc4ccc(Cl)cc4)ccc3c2c1.[Br-]
7. COc1ccc2[nH]c3c(CC[C@H](C)[C@H]4CC[C@H]5[C@@H]6CC[C@@H]7C[C@H](O)CC[C@]7(C)[C@H]6CC[C@]45C)[n+](Cc4ccc(OC(F)(F)F)cc4)ccc3c2c1.[Br-]
8. COc1ccc2[nH]c3c(CC[C@H](C)[C@H]4CC[C@H]5[C@@H]6[C@H](O)C[C@@H]7C[C@H](O)CC[C@]7(C)[C@H]6CC[C@]45C)[n+](Cc4ccc(C)cc4)ccc3c2c1.[Br-]

Outgoing:
[1, 4, 1, 16, 16, 0.5, 16, 16]

----------
system: Staphylococcus aureus; assay: Antibacterial activity against Staphylococcus aureus CGMCC1.8721; assay type: functional
Please provide measured MIC for the entries that follow.
Answers are plain numbers, in µg/mL.

Previously resolved entries follow.
test smiles	unit name	MIC
COc1cccc(C[n+]2ccc3c([nH]c4ccc(OC)cc43)c2CC[C@H](C)[C@H]2CC[C@H]3[C@@H]4[C@H](O)C[C@@H]5C[C@H](O)CC[C@]5(C)[C@H]4C[C@H](O)[C@]23C)c1.[Br-]	µg/mL	1
COc1ccc(OC)c(C[n+]2ccc3c([nH]c4ccc(OC)cc43)c2CC[C@H](C)[C@H]2CC[C@H]3[C@@H]4[C@H](O)C[C@@H]5C[C@H](O)CC[C@]5(C)[C@H]4CC[C@]23C)c1.[Br-]	µg/mL	4
COc1ccc2[nH]c3c(CC[C@H](C)[C@H]4CC[C@H]5[C@@H]6[C@H](O)C[C@@H]7C[C@H](O)CC[C@]7(C)[C@H]6C[C@H](O)[C@]45C)[n+](Cc4ccc(F)cc4)ccc3c2c1.[Br-]	µg/mL	0.5
CCC[n+]1ccc2c([nH]c3ccc(OC)cc32)c1CC[C@H](C)[C@H]1CC[C@H]2[C@@H]3[C@H](O)C[C@@H]4C[C@H](O)CC[C@]4(C)[C@H]3CC[C@]12C.[Br-]	µg/mL	1

Hi there! I need MIC for each item below, if you can.
1. COc1cccc(C[n+]2ccc3c([nH]c4ccc(OC)cc43)c2CC[C@H](C)[C@H]2CC[C@H]3[C@@H]4[C@H](O)C[C@@H]5C[C@H](O)CC[C@]5(C)[C@H]4CC[C@]23C)c1.[Br-]
2. COc1ccc2[nH]c3c(CC[C@H](C)[C@H]4CC[C@H]5[C@@H]6[C@H](O)C[C@@H]7C[C@H](O)CC[C@]7(C)[C@H]6C[C@H](O)[C@]45C)[n+](Cc4ccccc4C)ccc3c2c1.[Br-]
3. CC[n+]1ccc2c([nH]c3ccc(OC)cc32)c1CC[C@H](C)[C@H]1CC[C@H]2[C@@H]3[C@H](O)C[C@@H]4C[C@H](O)CC[C@]4(C)[C@H]3C[C@H](O)[C@]12C.[Br-]
4. COc1ccc2[nH]c3c(CC[C@H](C)[C@H]4CC[C@H]5[C@@H]6[C@H](O)C[C@@H]7C[C@H](O)CC[C@]7(C)[C@H]6CC[C@]45C)[n+](Cc4cccc(F)c4)ccc3c2c1.[Br-]
5. COc1ccc2[nH]c3c(CC[C@H](C)[C@H]4CC[C@H]5[C@@H]6[C@H](O)C[C@@H]7C[C@H](O)CC[C@]7(C)[C@H]6C[C@H](O)[C@]45C)[n+](Cc4ccc(C)cc4)ccc3c2c1.[Br-]

Outgoing:
1: 4; 2: 0.5; 3: 16; 4: 4; 5: 0.5
